Values from PubChem BioAssay (NCI)

test-name: NCI Yeast Anticancer Drug Screen. Data for the bub3 strain (AID 167)
conditions-used: S. cerevisiae bub3 mutant strain, at 50.0 µM
The panel holds about 79,000 compounds, 15% with a hit somewhere; the sample as a whole holds those more often. Activity calls are given as the source filed them. Rule as the data show it: active = growth inhibition above about 70%; inactive = the rest.
# valid calls are Y for active, N for inactive; nothing else

stdin: Record lookup: outcome of this test for CN(C)C(=O)C(NCCO)c1ccccc1 (stereo not drawn) ?
stdout: N

stdin: Record lookup: outcome of this test for CCN(CC)C(=S)N1C(=O)C2C3CCC(O3)C2C1=O (stereo not drawn) ?
stdout: N

stdin: Record lookup: outcome of this test for `O=C(O)c1oc(C(=O)O)c(C(=O)O)c1C(=O)O` ?
stdout: N

stdin: Record lookup: outcome of this test for OC(CN1CCCCC1)c1ccncc1 (stereo not drawn) ?
stdout: N

stdin: Record lookup: outcome of this test for `Clc1ccc(Cc2ccc(Br)cc2)cc1` ?
stdout: N

stdin: Record lookup: outcome of this test for CN(CCC1(C)C(=O)CCc2ccccc21)Cc1ccccc1 (stereo not drawn) ?
stdout: N

stdin: Record lookup: outcome of this test for `OCC[N-]CC[N-]CCO.[Cl][Co][Cl]` ?
stdout: N

stdin: Record lookup: outcome of this test for `O=C(OCc1ccccc1)c1ccc(NCc2cc(O)ccc2O)cc1` ?
stdout: Y

stdin: Record lookup: outcome of this test for `c1ccc2c(c1)Nc1nc3ccccc3nc1N2` ?
stdout: N

stdin: Record lookup: outcome of this test for CCC(CCC(=O)O)C1CCCCC1 (stereo not drawn) ?
stdout: N

stdin: Record lookup: outcome of this test for `C/C(CCn1[nH]c(=O)ccc1=O)=N\OCCCc1ccccc1` ?
stdout: N

stdin: Record lookup: outcome of this test for `O=C=Nc1cccc([N+](=O)[O-])c1` ?
stdout: N

stdin: Record lookup: outcome of this test for `CN(CCSSCCN(C)/N=C/c1ccccc1)/N=C/c1ccccc1` ?
stdout: N
